Below, each entry is listed alongside its reported EC50.
Molecular target: T1, Homo sapiens Beta-Nerve Growth Factor (beta-NGF) (Homo sapiens, UniProt P01138 122-241)
T1 construct: Biotinylated and held on neutravidin plates in the ELISA; also called huNGF; B-NGF
T1 sequence (P01138 122-241): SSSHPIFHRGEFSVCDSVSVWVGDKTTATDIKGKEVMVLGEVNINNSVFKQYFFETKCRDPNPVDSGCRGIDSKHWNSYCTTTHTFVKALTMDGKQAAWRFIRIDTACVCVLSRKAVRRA
Assay: antigen binding ELISA: biotinylated NGF on neutravidin plates, anti-human Fc-HRP, OD at 450 nm
Description: To identify and characterize antibodies and Fab fragments that bind to human NGF, antibody- and Fab-containing solutions were tested by ELISA. Briefly, neutravidin coated plates (Thermo Scientific), were blocked with ELISA buffer (0.1 mg/mL BSA, 1×PBS pH 7.4, 0.002% Tween 20 and 0.005% sodium azide) for 1 hr at room temperature. […] After a 3× wash step with PBS/Tween solution, the plate was developed using TMB substrate for 3 minutes, stopped using 0.5M HCl, and read at 450 nm.
Write the value in nM as a bare number.

BINDER | EC50 / nM
Antibody Ab8 (antibody, human IgG1, kappa, N297A, V domains shown) VH: QVQLVESGGGVVQPGRSLRLSCAASGFTFSSYAMIWVRQAPGKGLEYIGYIDTDTSAYYASSVKGRFTISRDNSKNTLYLQMSSLRAEDTAVYYCARSYAAYGGYPATFDPWGQGTLVTVSS VL: DIQMTQSPSSLSASVGDRVTITCQASEDIYNLLAWYQQKPGKVPKLLIYSASTLASGVPSRFSGSGSGTDYTLTISSLQPEDVATYYCQNNYLVTTYGVAFGGGTKVEIKR | 0.207

# input State its EC50 for this binder: Antibody Ab20 (antibody, human IgG1, kappa, N297A, V domains shown) VH: EVQLVESGGGLVQPGGSLRLSCAASGFTVSTYWMSWVRQAPGKGLEWVGDIYFSNEETNYATSAKGRFTISRDNSKNTLYLQMNSLRAEDTAVYYCARGSPDVEIAIDMWGQGTLVTVSS VL: DIQMTQSPSSLSASVGDRVTITCQSSQNVYKNNYLSWYQQKPGKVPKLLIYKASTLASGVPSRFSGSGSGTDFTLTISSLQPEDVATYYCAGGYTSSSDNAFGGGTKVEIKR
# output 0.667
